Hello, the source for this data is patent US11214803B2, in case you need it.

Test system: Yap1 mRNA
assayText: Antisense inhibition of human Yap1 in A-431 cells by cEt gapmers, single dose (Example 3, RTS36584)
Format: cell-based
particulars: Table 8; A-431 cells, 5,000 cells per well, free uptake, 2,000 nM, approximately 48 hours; RTS36584; normalized to RIBOGREEN; Yap1 mRNA relative to untreated control cells
Strand notation (5' to 3'): a small letter for the sugar, then the base; units joined by * are phosphorothioate-linked, units joined directly phosphodiester-linked; [ ] holds rarer units or linkages, { } end groups; capitals alone tell only the bases. k = constrained ethyl (cEt); [5mC] = 5-methylcytosine; d = 2'-deoxy (DNA)

# substance, YAP1 (% UTC)
rows = [
    ("958393 (antisense kG*k[5mC]*k[5mC]*dT*dA*dT*dG*dA*dG*dT*d[5mC]*dA*dA*k[5mC]*k[5mC]*kT) [Compound 958393]", 89),
    ("958391 (antisense kA*kG*k[5mC]*dG*dA*dA*dG*dG*dT*dG*d[5mC]*dG*dG*kA*kG*k[5mC]) [Compound 958391]", 102),
    ("958368 (antisense kA*kT*k[5mC]*dT*dA*dG*d[5mC]*dT*dT*dG*dG*dT*dG*kG*k[5mC]*kA) [Compound 958368]", 11),
]
